Where do the numbers come from? From patent EP0425235B1.

System: KB (human epidermoid carcinoma)
Experiment: In vitro cytotoxicity, clonogenic assay (plating efficiency)
Format: cell-based
Conditions: KB, 24 hour exposure
Measure: pIC50
A value of pIC50 is the negative decimal logarithm of a concentration given in moles per litre.

Qu. State the recorded pIC50 for this entry: COc1cc2cc(c1Cl)N(C)C(=O)C[C@H](OC(=O)[C@H](C)N(C)C(=O)CCCSSC)[C@]1(C)O[C@H]1[C@H](C)[C@@H]1C[C@@](O)(NC(=O)O1)[C@H](OC)/C=C/C=C(\C)C2
Ans. 11.07

----------
Tested on: A498 (Renal carcinoma)
Assay: In vitro cytotoxicity, clonogenic assay
Format: cell-based, human
Settings: Homo sapiens; A498, 24hr exposure
Measure: pIC50
In plain terms, pIC50 is the concentration in mol/L turned into minus its base-10 logarithm.

Qu. Give the reported pIC50 for COc1cc2cc(c1Cl)N(C)C(=O)C[C@H](OC(=O)[C@H](C)N(C)C(=O)CCSSC)[C@]1(C)O[C@H]1[C@H](C)[C@@H]1C[C@@](O)(NC(=O)O1)[C@H](OC)/C=C/C=C(\C)C2 [Compound 6b] (system: A498 (Renal carcinoma)).
Ans. 10.00
